Origin of values: PubChem BioAssay AID2060489

This listing pairs compounds with measured viability, T/C.
test system: 922993-354-T-J3-PDC complex spheroids, viability; assay: Anticancer human tumor 922993-354-T-J3-PDC patient-derived endometrial carcinoma cell line growth inhibition [GQUAD]; conditions: second compound 0.0316 µM; first compound 0.0316 µM; stronger effect = lower value
Observed Property: viability, T/C (%)

| Compound | Unit Label | Data Value |
| --- | --- | --- |
| CC(=O)O[C@H]1C(=O)[C@@]2(C)[C@H]([C@H](OC(=O)c3ccccc3)[C@]3(O)C[C@H](OC(=O)[C@H](O)[C@@H](NC(=O)c4ccccc4)c4ccccc4)C(C)=C1C3(C)C)[C@]1(OC(C)=O)CO[C@@H]1C[C@@H]2O + Cc1cnc(CNC(=O)c2c(=O)c3ccc(N4CCCN(C)CC4)nc3n3c2sc2ccccc23)cn1 | % | 84.5 |
| CCc1c2c(nc3ccc(O)cc13)-c1cc3c(c(=O)n1C2)COC(=O)[C@]3(O)CC + CN(C)c1ccc(Nc2c3ccc(NC(=O)CCN4CCCC4)cc3nc3cc(NC(=O)CCN4CCCC4)ccc23)cc1 | % | 10.4 |
| Nc1ccn(C2OC(CO)C(O)C2(F)F)c(=O)n1 (stereo not given) + Cc1[nH]c2ccc(F)cc2c1-c1nc2c3cccnc3c3ncccc3c2[nH]1 | % | 25.1 |
| O=C(c1cc(Cc2n[nH]c(=O)c3ccccc23)ccc1F)N1CCN(C(=O)C2CC2)CC1 + Cc1cnc(CNC(=O)c2c(=O)c3ccc(N4CCCN(C)CC4)nc3n3c2sc2ccccc23)cn1 | % | 79.7 |
| CC(C)n1c(=O)n(C)c2cnc3cc(F)c(-c4ccc(OCCCN5CCCCC5)nc4)cc3c21 + Cc1[nH]c2ccc(F)cc2c1-c1nc2c3cccnc3c3ncccc3c2[nH]1 | % | 110 |

* * *

system: 922993-354-T-J3-PDC complex spheroids, viability; test: Anticancer human tumor 922993-354-T-J3-PDC cell line growth inhibition [GQUAD]; conditions: curve of first compound; second compound 10 µM;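 further: spheroids exposed to compounds for seven days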
pIC50: −log10 of the molar value.
This listing pairs molecules with measured pIC50.

| Molecule | pIC50 |
| --- | --- |
| CC1COCCN1c1cc(C2(O)CC3CCC(C2)O3)c2cnn(-c3ccn[nH]3)c2n1 (stereo unspecified) + Cc1cnc(CNC(=O)c2c(=O)c3ccc(N4CCCN(C)CC4)nc3n3c2sc2ccccc23)cn1 | > 7.50 |
| CCc1c2c(nc3ccc(O)cc13)-c1cc3c(c(=O)n1C2)COC(=O)[C@]3(O)CC + CN(C)c1ccc(Nc2c3ccc(NC(=O)CCN4CCCC4)cc3nc3cc(NC(=O)CCN4CCCC4)ccc23)cc1 | 8.05 |
| O=c1[nH]cc(F)c(=O)[nH]1 + Cc1[nH]c2ccc(F)cc2c1-c1nc2c3cccnc3c3ncccc3c2[nH]1 | < 5.00 |
| COc1cccc2c1C(=O)c1c(O)c3c(c(O)c1C2=O)CC(O)(C(=O)CO)CC3OC1CC(N)C(O)C(C)O1 (stereo unspecified) + Cc1cnc(CNC(=O)c2c(=O)c3ccc(N4CCCN(C)CC4)nc3n3c2sc2ccccc23)cn1 | > 7.50 |
| Cc1cccc(N(C)C(=O)C2C(O)CCN2c2nc(C)cc(C(F)(F)F)c2C#N)c1 (stereo unspecified) + Cc1[nH]c2ccc(F)cc2c1-c1nc2c3cccnc3c3ncccc3c2[nH]1 | < 5.00 |
| Cn1ncnc1[C@H]1c2n[nH]c(=O)c3cc(F)cc(c23)N[C@@H]1c1ccc(F)cc1 + Cc1cnc(CNC(=O)c2c(=O)c3ccc(N4CCCN(C)CC4)nc3n3c2sc2ccccc23)cn1 | > 9.00 |

* * *

tested on: 922993-354-T-J3-PDC complex spheroids, viability; assay: Anticancer human tumor 922993-354-T-J3-PDC cell line growth inhibition [GQUAD]; details: second compound 1 µM; first compound 10 µM; stronger effect = lower value;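 further: spheroids exposed to compounds for seven days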;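 on viability, T/C: 100% = DMSO vehicle control viability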
Observed Property: viability, T/C (%)

| Compound | Observed Property | Unit Label | Data Value |
| --- | --- | --- | --- |
| C=CCn1c(=O)c2cnc(Nc3ccc(N4CCN(C)CC4)cc3)nc2n1-c1cccc(C(C)(C)O)n1 + Cc1[nH]c2ccc(F)cc2c1-c1nc2c3cccnc3c3ncccc3c2[nH]1 | viability, T/C | % | 17.9 |
| Cc1cccc(N(C)C(=O)C2C(O)CCN2c2nc(C)cc(C(F)(F)F)c2C#N)c1 (stereo not given) + Cc1[nH]c2ccc(F)cc2c1-c1nc2c3cccnc3c3ncccc3c2[nH]1 | viability, T/C | % | 97.3 |
| COc1ccc([C@@H](O)c2cc(-c3ncnc4cc(N5CCOCC5)ccc34)c(F)cc2Cl)nn1 + Cc1cnc(CNC(=O)c2c(=O)c3ccc(N4CCCN(C)CC4)nc3n3c2sc2ccccc23)cn1 | viability, T/C | % | 27.1 |
| C=CC(=O)N1CCN(c2nc(=O)n(-c3c(C)ccnc3C(C)C)c3nc(-c4c(O)cccc4F)c(F)cc23)C(C)C1 (stereo not given) + Cc1[nH]c2ccc(F)cc2c1-c1nc2c3cccnc3c3ncccc3c2[nH]1 | viability, T/C | % | 107 |
| C#Cc1c(F)ccc2cc(O)cc(-c3ncc4c(N5CC6CCC(C5)N6)nc(OCC56CCCN5CC(F)C6)nc4c3F)c12 (stereo not given) + CN(C)c1ccc(Nc2c3ccc(NC(=O)CCN4CCCC4)cc3nc3cc(NC(=O)CCN4CCCC4)ccc23)cc1 | viability, T/C | % | 88.1 |

* * *

tested on: 922993-354-T-J3-PDC complex spheroids, viability; experiment: Anticancer human tumor 922993-354-T-J3-PDC cell line growth inhibition [GQUAD]; details: second compound 3.16 µM; first compound 1 µM; stronger effect = lower value;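 further: spheroids exposed to compounds for seven days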;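 on viability, T/C: 100% = DMSO vehicle control viability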
This listing pairs compounds with measured viability, T/C.
Observed Property: viability, T/C (%)

| Compound | Observed Property | Unit Label | Data Value |
| --- | --- | --- | --- |
| CC1COCCN1c1cc(C2(S(C)(=N)=O)CC2)nc(-c2ccnc3[nH]ccc23)n1 (stereo not given) + Cc1[nH]c2ccc(F)cc2c1-c1nc2c3cccnc3c3ncccc3c2[nH]1 | viability, T/C | % | 104 |
| C=CCn1c(=O)c2cnc(Nc3ccc(N4CCN(C)CC4)cc3)nc2n1-c1cccc(C(C)(C)O)n1 + CN(C)c1ccc(Nc2c3ccc(NC(=O)CCN4CCCC4)cc3nc3cc(NC(=O)CCN4CCCC4)ccc23)cc1 | viability, T/C | % | 104 |
| O=C(c1cc(Cc2n[nH]c(=O)c3ccccc23)ccc1F)N1CCN(C(=O)C2CC2)CC1 + Cc1cnc(CNC(=O)c2c(=O)c3ccc(N4CCCN(C)CC4)nc3n3c2sc2ccccc23)cn1 | viability, T/C | % | 57.7 |
| CC(=O)O[C@H]1C(=O)[C@@]2(C)[C@H]([C@H](OC(=O)c3ccccc3)[C@]3(O)C[C@H](OC(=O)[C@H](O)[C@@H](NC(=O)c4ccccc4)c4ccccc4)C(C)=C1C3(C)C)[C@]1(OC(C)=O)CO[C@@H]1C[C@@H]2O + Cc1[nH]c2ccc(F)cc2c1-c1nc2c3cccnc3c3ncccc3c2[nH]1 | viability, T/C | % | 136 |
| O=C(c1cc(Cc2n[nH]c(=O)c3ccccc23)ccc1F)N1CCN(C(=O)C2CC2)CC1 + CN(C)c1ccc(Nc2c3ccc(NC(=O)CCN4CCCC4)cc3nc3cc(NC(=O)CCN4CCCC4)ccc23)cc1 | viability, T/C | % | 75.5 |

* * *

tested on: 922993-354-T-J3-PDC complex spheroids, viability; test: Anticancer human tumor 922993-354-T-J3-PDC cell line growth inhibition [GQUAD]; settings: second compound 0.1 µM; first compound 10 µM; stronger effect = lower value;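 further: spheroids exposed to compounds for seven days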;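 on viability, T/C: 100% = DMSO vehicle control viability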
This listing pairs compounds with measured viability, T/C.

| Compound | viability, T/C |
| --- | --- |
| O=C(NO)c1cnc(N2CCN(S(=O)(=O)c3ccc4ccccc4c3)CC2)nc1 + CN(C)c1ccc(Nc2c3ccc(NC(=O)CCN4CCCC4)cc3nc3cc(NC(=O)CCN4CCCC4)ccc23)cc1 | 0.4% |
| COc1ccc([C@@H](O)c2cc(-c3ncnc4cc(N5CCOCC5)ccc34)c(F)cc2Cl)nn1 + CN(C)c1ccc(Nc2c3ccc(NC(=O)CCN4CCCC4)cc3nc3cc(NC(=O)CCN4CCCC4)ccc23)cc1 | 71.8% |
| C#Cc1c(F)ccc2cc(O)cc(-c3ncc4c(N5CC6CCC(C5)N6)nc(OCC56CCCN5CC(F)C6)nc4c3F)c12 (stereo unspecified) + CN(C)c1ccc(Nc2c3ccc(NC(=O)CCN4CCCC4)cc3nc3cc(NC(=O)CCN4CCCC4)ccc23)cc1 | 95.9% |
| CC(C)(O)C1CCC(Nc2ccc3ncc(-c4cccc(C(F)(F)F)c4)n3n2)CC1 (stereo unspecified) + CN(C)c1ccc(Nc2c3ccc(NC(=O)CCN4CCCC4)cc3nc3cc(NC(=O)CCN4CCCC4)ccc23)cc1 | 81.2% |
| CC1COCCN1c1cc(C2(S(C)(=N)=O)CC2)nc(-c2ccnc3[nH]ccc23)n1 (stereo unspecified) + Cc1cnc(CNC(=O)c2c(=O)c3ccc(N4CCCN(C)CC4)nc3n3c2sc2ccccc23)cn1 | 35.5% |
| CC1COCCN1c1cc(C2(S(C)(=N)=O)CC2)nc(-c2ccnc3[nH]ccc23)n1 (stereo unspecified) + CN(C)c1ccc(Nc2c3ccc(NC(=O)CCN4CCCC4)cc3nc3cc(NC(=O)CCN4CCCC4)ccc23)cc1 | 68.4% |
